Molecular target: T1, human CD24 (human, UniProt P25063 27-59, heavily glycosylated, GPI-anchored (as described in the background))
T1 construct: whole, on cells; Target of all cell-based FACS assays; also called hCD24; Cluster of differentiation 24
T1 chain (looked up): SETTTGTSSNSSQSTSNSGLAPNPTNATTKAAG
Experiment: FACS, CHOK1-hCD24 cells
Let's look at some binders and their measured Max MFI.
assayReadout: Max MFI

binder	measured
56A7E3 (antibody, V domains shown, mouse monoclonal antibody) VH: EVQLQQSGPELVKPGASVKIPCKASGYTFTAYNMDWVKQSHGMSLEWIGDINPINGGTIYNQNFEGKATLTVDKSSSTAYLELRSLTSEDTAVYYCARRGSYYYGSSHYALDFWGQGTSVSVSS VL: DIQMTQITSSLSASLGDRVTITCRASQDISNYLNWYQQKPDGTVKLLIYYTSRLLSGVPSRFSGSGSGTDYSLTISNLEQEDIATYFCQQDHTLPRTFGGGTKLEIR	36700
81A1F8 (antibody, V domains shown, mouse monoclonal antibody) VH: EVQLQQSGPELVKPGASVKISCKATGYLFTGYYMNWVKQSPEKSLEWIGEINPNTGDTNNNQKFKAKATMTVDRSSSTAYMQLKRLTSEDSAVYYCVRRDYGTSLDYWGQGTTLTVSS VL: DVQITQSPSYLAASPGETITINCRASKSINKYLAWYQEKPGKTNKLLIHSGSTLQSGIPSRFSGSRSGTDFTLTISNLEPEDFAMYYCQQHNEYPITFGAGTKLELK	45900
SN3 (antibody, V domains shown) VH: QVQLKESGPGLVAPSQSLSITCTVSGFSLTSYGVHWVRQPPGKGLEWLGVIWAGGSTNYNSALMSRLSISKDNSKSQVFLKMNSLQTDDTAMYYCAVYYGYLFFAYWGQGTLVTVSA VL: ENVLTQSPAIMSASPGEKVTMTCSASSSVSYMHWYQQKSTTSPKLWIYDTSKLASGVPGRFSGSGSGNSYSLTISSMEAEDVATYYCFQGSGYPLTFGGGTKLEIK	29700
ch110D4G4-hIgG4 (antibody, V domains shown, chimeric; also called chAb110D4G4) VH: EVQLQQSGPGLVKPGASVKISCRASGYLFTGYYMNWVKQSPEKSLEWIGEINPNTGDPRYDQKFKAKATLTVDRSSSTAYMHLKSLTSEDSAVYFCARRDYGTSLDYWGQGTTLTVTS VL: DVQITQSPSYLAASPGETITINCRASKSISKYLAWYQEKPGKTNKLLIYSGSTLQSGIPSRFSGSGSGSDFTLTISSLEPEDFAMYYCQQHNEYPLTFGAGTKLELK	99500
ch100F2E3-hIgG4 (antibody, V domains shown, chimeric) VH: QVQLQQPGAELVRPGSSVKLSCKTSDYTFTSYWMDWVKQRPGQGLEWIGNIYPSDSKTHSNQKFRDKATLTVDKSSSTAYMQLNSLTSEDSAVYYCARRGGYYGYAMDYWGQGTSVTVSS VL: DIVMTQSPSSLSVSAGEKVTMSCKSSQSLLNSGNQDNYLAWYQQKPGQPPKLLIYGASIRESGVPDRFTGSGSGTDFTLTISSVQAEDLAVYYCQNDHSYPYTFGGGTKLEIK	59300
